Below, each entry is listed with its recorded self-cleavage.
B1: LINE1-full (parent)
chain: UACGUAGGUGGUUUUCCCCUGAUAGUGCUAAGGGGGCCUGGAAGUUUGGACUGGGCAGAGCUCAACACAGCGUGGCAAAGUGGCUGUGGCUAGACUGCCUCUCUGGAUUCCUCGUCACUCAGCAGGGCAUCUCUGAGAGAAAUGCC

# Variants of: B1
# ASSAY_DETAILS: self-cleavage, relative activity (ratio to wild type); higher = more cleavage; in vitro, sequencing; the parent is a self-cleaving ribozyme
The answer should be a number; do not append a unit.

Prompt: Entry UGCGUAGGUGGUUUUCCCCUGAUAGUGCUAAGGGGGCCUGGAAGUUUGGACUGGGCAGAGCUCAACACAGCGUGGCAAAGUGGCUGUGGCUAGACUGCCUCUCUGGAUUCCUCGUCACUCAGCAGGGCAUCUCUGAGAGCAAUGCC [A2G A140C] : reported self-cleavage = ?
Response: 0.51

Prompt: Entry UACGUAGGUGGUUUUCCCCUGAUAGUGCUAAGGGGGCCUGGAAGUUUGGACUGGGCAGAGCUCAACACAGCGUGGCAAAGUGGCUGUGGUUAGACUGCCUCUCUGGAUUCCUCGUCACUCAGCAGGGCAUCUCUGAGAGAAACGCC [C90U U143C] : reported self-cleavage = ?
Response: 0
